Reported viability at 24 h, 1 µM values for a set of compounds
Assay: MTT cell viability assay in BV2 microglia cells
Assay type: cell-based
Settings: mouse, 1 µM, mean ± SD, n = 3
Method: The BV2 microglial cells were purchased from the China Center for Type Culture Collection, CCTCC (Wuhan, Hubei). BV2 microglia cells were incubated in DMEM media supplemented with 10% (v/v) FBS, 100 U/mL penicillin G and […] streptomycin at 37 °C with 5% CO2. Cell viability assays were evaluated using a 3-(4,5-dimethylthiazol-2-yl)-2,5-diphenyltetrazolium bromide (MTT) assay. […] The optical density (A) was measured at […] on a microplate reader. […]
Metric: viability at 24 h, 1 µM (%)

> print(dat)
                               line.notation                   metric  recorded.value
 1        O=C(/C=C/CCc1ccccc1)/C=C/c1ccccc1O  viability at 24 h, 1 µM            95.7
 2  COc1cc(/C=C/C(=O)/C=C/CCc2ccccc2)cc(OC)c1OC  viability at 24 h, 1 µM             107
 3    COc1cc(CC/C=C/C(=O)/C=C/c2ccccc2)ccc1O  viability at 24 h, 1 µM             107
 4  COc1cc(/C=C/C(=O)/C=C/CCc2ccc(O)c(OC)c2)ccc1O  viability at 24 h, 1 µM            97.3
 5      Cc1ccc(/C=C/C(=O)/C=C/CCc2ccccc2)cc1  viability at 24 h, 1 µM              95
 6    COc1ccc(/C=C/C(=O)/C=C/CCc2ccccc2)cc1O  viability at 24 h, 1 µM             101
 7      O=C(/C=C/CCc1cccc(O)c1)/C=C/c1ccccc1  viability at 24 h, 1 µM             103
 8      O=C(/C=C/CCc1ccccc1)/C=C/c1ccc(O)cc1  viability at 24 h, 1 µM            93.5
 9   O=C(/C=C/CCc1ccc(O)cc1)/C=C/c1ccc(O)cc1  viability at 24 h, 1 µM            88.1
10  COc1ccc(/C=C/C(=O)/C=C/CCc2ccc(OC)cc2)cc1  viability at 24 h, 1 µM              98
11  COc1ccc(CC/C=C/C(=O)/C=C/c2ccc(O)cc2)cc1  viability at 24 h, 1 µM             109
12     COc1ccc(/C=C/C(=O)/C=C/CCc2ccccc2)cc1  viability at 24 h, 1 µM             107
13     COc1ccc(CC/C=C/C(=O)/C=C/c2ccccc2)cc1  viability at 24 h, 1 µM            96.9
